Tested on: HT-29
Test: Cytotoxicity against human HT-29 cells
Assay type: functional, cell-based
measure: IC50 (µM)
Output spec: scalar in µM, unitless text.

GET /value?item= C=C1[C@@H](O)[C@H]2O[C@@]2(C[C@H]2C(C)=CC[C@H]3C(C)(C)CCC[C@]23C)[C@@H](O)[C@H]1O [EPOXYPHOLAMIN D] &field=IC50 returns 10.8

----------
Test: Cytotoxicity against human OVXF 1619L cells
Type: functional, cell-based
measure: IC50 (µM)
Output spec: scalar in µM, unitless text.

GET /value?item= C=C1[C@@H](O)[C@H]2O[C@@]2(C[C@H]2C(C)=CC[C@H]3C(C)(C)CCC[C@]23C)[C@@H](O)[C@H]1O &field=IC50 returns 10.2

----------
Test: Cytotoxicity against human RXF 1781L cells
Format: functional, cell-based
measure: pIC50
# pIC50 is unitless: minus log10 of the molar concentration; print number only

GET /value?item= C=C1[C@@H](O)[C@H]2O[C@@]2(C[C@H]2C(C)=CC[C@H]3C(C)(C)CCC[C@]23C)[C@@H](O)[C@H]1O &field=pIC50 returns 4.93

----------
Assay: Cytotoxicity against human LXFL 1121L cells
Assay type: functional, cell-based
measure: IC50 (µM)
Output spec: scalar in µM, unitless text.

GET /value?item= C=C1[C@@H](O)[C@H]2O[C@@]2(C[C@H]2C(C)=CC[C@H]3C(C)(C)CCC[C@]23C)[C@@H](O)[C@H]1O &field=IC50 returns 8.94

----------
Assay: Cytotoxicity against human RXF 486L cells
Assay type: functional, cell-based
measure: pIC50
# pIC50 is unitless: minus log10 of the molar concentration; print number only

GET /value?item= C=C1[C@@H](O)[C@H]2O[C@@]2(C[C@H]2C(C)=CC[C@H]3C(C)(C)CCC[C@]23C)[C@@H](O)[C@H]1O &field=pIC50 returns 5.12

The origin of these recorded values is ChEMBL document CHEMBL1649383.
